Tested on: HCT-15 colon
Experiment: NCI-60 one-dose screen, 48 h (100 = growth as untreated, 0 = no growth, -100 = all killed)
Details: 10 µM unless noted
Method: Growth inhibition of the HCT-15 human tumor cell line is measured as a screen for anti-cancer activity. Cells are grown in 96 well plates and exposed to the test compound for 48 hours. Compounds are tested at a single concentration, which is 10^-5 M for most compounds. The reported endpoint is percent growth (GI% or GIPRCNT), where numbers from 0 - 100% represent growth inhibition, and numbers from -100% - 0 represent cell death. For example, a value of 40 represents 60% growth inhibition. […]
This is part of a sample that, as a whole, favours compounds with a hit. Of some 83,000 tested, about 20% had one in any assay. The source made the active and inactive calls. The calls were made as follows: active = growth percent below 10; inactive = the rest.
observable: growth

# compound, observable, recorded measurement
data = [
    ("CC(=O)c1ccc2c(c1)c1ccccc1n2C", "growth", "102% (inactive)"),
    ("CC[C@H](Nc1ncnc2nc[nH]c12)c1nc2cccc(NCc3ccc(C(=O)NO)o3)c2c(=O)n1-c1ccccc1", "growth", "103% (inactive)"),
    ("COc1cc(N2C(=O)C=CC2=O)ccc1N1C(=O)C=CC1=O", "growth", "109% (inactive)"),
    ("C/C=C(/C)C(=O)OC1C=C(CO)C(=O)C(OC(=O)/C(C)=C\\C)C1C(C)C (stereo unspecified)", "growth", "-49.3% (active)"),
    ("COc1ccc(C(=O)CN2C(=O)NC(c3ccccc3)(c3ccccc3)C2=O)cc1", "growth", "99.5% (inactive)"),
]

compound "O=C(/C(Br)=C/c1ccccc1)c1ccccc1" , growth observed: -21.9% (active)

----------
system: SK-MEL-5 melanoma; test: NCI-60 one-dose screen, 48 h (100 = growth as untreated, 0 = no growth, -100 = all killed); conditions: 10 µM unless noted
This is part of a sample that, as a whole, favours compounds with a hit. Of some 83,000 tested, about 20% had one in any assay.
observable: growth (%)
Numeric answer only, unit % assumed.

# compound, observable, unit abbreviation, recorded measurement
data = [
    ("COc1cc2c(c(OC)c1OC)C(=O)CC(c1cccc(C(=O)Nc3cccc(Br)c3)c1)O2 (stereo not given)", "growth", "%", 72.9),
    ("Cc1ncc(C(=O)Nc2ccc(CN3CCN(C)CC3)c(C(F)(F)F)c2)cc1C#Cc1c(N)ncc2ccccc12", "growth", "%", -99.6),
    ("CCCCCN1CCN(C(CC(=O)c2ccccc2)C(=O)c2ccccc2)CC1 (stereo not given)", "growth", "%", 106),
    ("Brc1c(-c2ccncc2)nc2n1CCS2", "growth", "%", 103),
    ("COc1ccc(-c2nc(SCC(C)C)nc(Nc3ccccc3)c2C#N)cc1", "growth", "%", 96.7),
]

compound "NC(=O)c1c(Nc2ccccc2)nn2cc(-c3nc4ccccc4s3)c(N)nc12" , growth observed: 97.3

compound "COc1ccc2cnc(N)c(C#Cc3cc(C(=O)Nc4ccc(CN5CCN(C)CC5)c(C(F)(F)F)c4)cnc3C)c2c1" , growth observed: 34.6

compound "CCS(=O)(=O)OCCO[C@H]1Cc2cc3ccc(=O)oc3cc2OC1(C)C" , growth observed: 101

compound CCCCCCC(C)N(CC(C)(C)O)C(=O)c1ccc([N+](=O)[O-])cc1 (stereo not given) , growth observed: 95

compound "Cc1ccc(C(=O)Nc2ccc(CN3CCN(C)CC3)c(C(F)(F)F)c2)cc1C#Cc1cnc(N)c2ccc(C#N)cc12" , growth observed: 13.5

compound "CCCCN(CCC)CCCCCCCCCCN1CCCc2ccccc21" , growth observed: 98.8

compound "O=S(=O)(O)c1ccc2c(c1)Sc1cc(S(=O)(=O)O)ccc1O2" , growth observed: 112
